B1: E3 ubiquitin-protein ligase NEDD4-like, residues 539 to 589; numbered along this chain, Q96PU5 (parent)
chain: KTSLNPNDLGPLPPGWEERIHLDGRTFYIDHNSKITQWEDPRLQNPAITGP

- Variants of: B1
- protocol_summary: abundance fitness (aPCA) (normalised: wild type 0, dead -1); higher = more abundant; growth selection in yeast, the domain comes from the species named
- recorded_conditions: Homo sapiens
result_type: abundance fitness
Answers are plain numbers.

Some solved entries appear below for comparison.
G50Y | -0.202
E18W | -0.962
R42P | -0.474
Q37G | -0.723
A47W | -0.296

Please state, for each entry, its recorded abundance fitness.
1. S3V
2. Y28F
3. T49L
4. D30E
5. I35A
6. T2G
7. S3Y

# output
-0.353
-0.347
-0.104
-0.24
0.008
-0.308
-0.046

Please state, for each entry, its recorded abundance fitness.
1. S3T
2. I29V
3. D8L
4. R19P
5. W38K
6. R42G
7. R25E
8. L43M

# output
1: -0.175; 2: 0.013; 3: -0.304; 4: -0.969; 5: -0.029; 6: -0.656; 7: -0.198; 8: -0.153

Please state, for each entry, its recorded abundance fitness.
1. P46T
2. T49V

# output
1. -0.051
2. -0.198
